- Target of assay: USP28 (His-tagged USP28-FL-mammalian) (Homo sapiens)
- Construct: Expression of USP28 (1-1077)-TEV-6*His (pTT5 vector); made in house; host or cells: Expi293f cells (pTT5 vector)
- Sequence (Q96RU2 1-1077): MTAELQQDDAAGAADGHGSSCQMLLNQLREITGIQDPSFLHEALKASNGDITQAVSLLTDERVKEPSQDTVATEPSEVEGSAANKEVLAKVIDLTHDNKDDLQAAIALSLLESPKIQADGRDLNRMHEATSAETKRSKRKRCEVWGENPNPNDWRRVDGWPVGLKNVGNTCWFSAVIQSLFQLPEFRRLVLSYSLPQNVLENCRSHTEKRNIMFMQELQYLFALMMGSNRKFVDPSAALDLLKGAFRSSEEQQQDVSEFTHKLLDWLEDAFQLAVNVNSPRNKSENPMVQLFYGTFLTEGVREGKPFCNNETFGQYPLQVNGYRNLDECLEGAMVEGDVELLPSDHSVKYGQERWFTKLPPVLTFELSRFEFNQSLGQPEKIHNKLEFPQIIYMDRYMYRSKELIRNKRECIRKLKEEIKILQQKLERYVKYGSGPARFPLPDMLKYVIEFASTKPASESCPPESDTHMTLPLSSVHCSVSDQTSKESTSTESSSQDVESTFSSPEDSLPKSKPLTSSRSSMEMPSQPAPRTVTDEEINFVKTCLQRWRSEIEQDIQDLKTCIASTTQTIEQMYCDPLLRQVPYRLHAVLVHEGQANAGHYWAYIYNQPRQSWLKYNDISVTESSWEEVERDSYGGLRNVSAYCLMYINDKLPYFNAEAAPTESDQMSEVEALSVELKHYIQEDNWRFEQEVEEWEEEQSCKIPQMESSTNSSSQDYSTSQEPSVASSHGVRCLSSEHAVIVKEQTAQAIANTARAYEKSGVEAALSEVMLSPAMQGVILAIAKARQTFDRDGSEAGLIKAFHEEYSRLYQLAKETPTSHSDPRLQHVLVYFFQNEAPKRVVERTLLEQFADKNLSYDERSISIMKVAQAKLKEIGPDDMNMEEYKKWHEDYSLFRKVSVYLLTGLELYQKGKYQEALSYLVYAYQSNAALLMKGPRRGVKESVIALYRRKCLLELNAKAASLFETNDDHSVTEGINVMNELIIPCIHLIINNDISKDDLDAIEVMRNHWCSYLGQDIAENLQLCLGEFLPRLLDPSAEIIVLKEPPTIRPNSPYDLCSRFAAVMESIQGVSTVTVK
- Assay notes: Ubiquitin-Rhodamine 110 Assay for USP28 Activity, Example A-1(a)
- Format: biochemical
- Experimental context: Ubiquitin-Rhodamine 110 assay, Example A-1(a); read-out: USP28 A-1(a) IC50 range
Each entry below carries its reported IC50.

(Q) # query: IC50 of entry O=C(N[C@H]1CCc2c(c(F)cc(N3CC4CCC(C3)N4)c2C(F)F)C1)c1cnc2c(c1)[C@@H]1C[C@@H]1CN2 (single isomer, unassigned)
(A) > 2000 nM

(Q) Would you mind doing "Cc1ccc2c(N)c(C(=O)N[C@H]3COc4cc(N5C[C@H]6CCN[C@H]6C5)ccc4C3)sc2n1" as well?
(A) 1 to 50 nM

###

- Target of assay: USP28 (His-tagged USP28-FL-mammalian) (Homo sapiens, UniProt Q96RU2)
- Construct: Expression of USP28 (1-1077)-TEV-6*His (pTT5 vector); made in house; host or cells: Expi293f cells (pTT5 vector)
- Assay notes: Ubiquitin-Rhodamine 110 Assay for USP28 Activity, Example A-1(a)
- Type: biochemical
- Experimental context: Ubiquitin-Rhodamine 110 assay, Example A-1(a); read-out: USP28 A-1(a) IC50 range
- Source text: Example A-1(a): Biochemical Assay: Ubiquitin-Rhodamine 110 Assay for USP28 Activity […] For assay formats Example A-1(a), A-1(b), and A-2, data were reported as percent inhibition compared with control wells based on the following equation: % inh=1−((FLU−AveLow)/(AveHigh−AveLow)) where FLU=measured Fluorescence, AveLow=average Fluorescence of no enzyme control (n=16), and AveHigh=average Fluorescence of DMSO control (n=16). […]
Each entry below carries its reported IC50.

[[record]]
compound = "O=C(N[C@@H]1CCc2cc(N3CC4CCC(C3)N4)cc(F)c2C1)c1cnc2c(c1)[C@@H]1C[C@@H]1CN2"
observed_value = "200 to 2000 nM"

[[record]]
compound = "CO[C@H]1CN(c2ccc3c(n2)OC[C@H](NC(=O)c2sc4nc(C)cnc4c2N)C3)C[C@@H]1N"
observed_value = "200 to 2000 nM"

[[record]]
compound = "Cc1ccc2c(N)c(C(=O)N[C@H]3CCc4nc(N5CC6(C[C@H](N)CO6)C5)ccc4C3)sc2n1"
observed_value = "1 to 50 nM"

[[record]]
compound = "CO[C@@H]1CCN(c2ccc3c(n2)CC[C@H](NC(=O)c2sc4nc(C)ccc4c2N)C3)C[C@H]1N (single isomer, unassigned)"
observed_value = "50 to 200 nM"

[[record]]
compound = "Cc1ccc2c(N)c(C(=O)N[C@H]3CCc4cc(N5CC6CNCC(C5)O6)c(F)cc4C3)sc2n1"
observed_value = "1 to 50 nM"

[[record]]
compound = "CO[C@H]1CCN(c2ccc3c(n2)CC[C@H](NC(=O)c2sc4nc(C)ccc4c2N)C3)C[C@@H]1N (single isomer, unassigned)"
observed_value = "50 to 200 nM"


Now take the following compound into account.
(Q) # query: IC50 of entry "Cc1ccc2c(N)c(C(=O)N[C@H]3COc4cc([C@@H]5CCNCC5(F)F)ccc4C3)sc2n1"
(A) 1 to 50 nM

###

Each entry below carries its reported pIC50.
- Target of assay: USP28 (His-tagged USP28-FL-mammalian) (Homo sapiens, UniProt Q96RU2)
- Construct: Expression of USP28 (1-1077)-TEV-6*His (pTT5 vector); made in house; host or cells: Expi293f cells (pTT5 vector)
- Assay notes: Ubiquitin-Rhodamine 110 Assay for USP28 Activity, Example A-1(a)
- Format: biochemical
- Experimental context: Ubiquitin-Rhodamine 110 assay, Example A-1(a); read-out: USP28 A-1(a) IC50 range
pIC50: −log10 of the molar value.

For orientation, consider the following solved cases.
[[record]]
molecule = "Cc1ccc2c(N)c(C(=O)N[C@H]3CCc4nc(N5C[C@H]6COC[C@@H](C5)[C@@H]6N)ccc4C3)sc2n1 [Example 397]"
observed_value = "6.70 to 7.30"

[[record]]
molecule = "O=C(N[C@H]1COc2c(F)c(N3CC4CCC(C3)N4)cc(F)c2C1)c1cnc2c(c1)[C@H]1C[C@H]1CN2 [Example 90]"
observed_value = "5.70 to 6.70"

[[record]]
molecule = "Cc1ccc2c(N)c(C(=O)N[C@H]3COc4cc([C@@H]5CCNC[C@H]5F)ccc4C3)sc2n1 [Example 81]"
observed_value = "7.30 to 9.00"

[[record]]
molecule = "Cc1ccc2c(N)c(C(=O)N[C@H]3COc4cc(N5C[C@@H](N)[C@]6(CCOC6)C5)ccc4C3)sc2n1 [Example 432]"
observed_value = "7.30 to 9.00"

[[record]]
molecule = "[2H]C1([2H])NC([2H])([2H])C([2H])([2H])N(c2cc(F)c3c(c2)OC[C@H](NC(=O)c2sc4nc(C)ccc4c2N)C3)C1([2H])[2H] [Example 10-4]"
observed_value = "7.30 to 9.00"

[[record]]
molecule = "CO[C@H]1CN(c2ncc3c(n2)CC[C@H](NC(=O)c2sc4nc(C)ccc4c2N)C3)C[C@@H]1N [Example 186]"
observed_value = "< 5.70"

[[record]]
molecule = "CO[C@H]1CN(c2cc(F)c3c(c2)CC[C@@H](NC(=O)c2sc4nc(C)ccc4c2N)C3)C[C@@H]1N [Example 137]"
observed_value = "6.70 to 7.30"

[[record]]
molecule = "Cc1ccc2c(N)c(C(=O)N[C@H]3COc4cc(N5CC6CNCC(C5)O6)c(C#N)c(F)c4C3)sc2n1 [Example 127]"
observed_value = "7.30 to 9.00"

[[record]]
molecule = "Cc1cc(C)c2c(N)c(C(=O)N[C@H]3COc4cc(N5CC[C@H]6CNC[C@H]65)ccc4C3)sc2n1 [Example 226]"
observed_value = "7.30 to 9.00"

[[record]]
molecule = "CN[C@H]1CN(c2ccc3c(n2)CC[C@H](NC(=O)c2sc4nc(C)ccc4c2N)C3)C[C@@H]1COC (single isomer, unassigned) [Example 26-1]"
observed_value = "6.70 to 7.30"


(Q) USP28 (His-tagged USP28-FL-mammalian) (Homo sapiens, UniProt Q96RU2) / pIC50 / Cc1ccc2c(N)c(C(=O)N[C@@H]3CCc4cc(N5CCN[C@@H](CO)C5)ccc4C3)sc2n1 (single isomer, unassigned) [Example 7-11] : value?
(A) 6.70 to 7.30

(Q) Would you mind doing CCc1cccc2c(C(=O)N[C@H]3COc4cc(N5CCNCC5)ccc4C3)cnn12 [Example 474] as well?
(A) 7.30 to 9.00

(Q) Would you mind doing COc1ccc2c(N)c(C(=O)N[C@@H]3CCc4cc(N5CC6CCC(C5)N6)ccc4C3)sc2n1 (single isomer, unassigned) [Example 11-6] as well?
(A) 5.70 to 6.70

(Q) Would you mind doing Cc1ccc2c(N)c(C(=O)N[C@H]3CCc4nc(N5C6CC(N)CC5CS(=O)(=O)C6)ccc4C3)sc2n1 (some centres unmarked) [Example 429] as well?
(A) 7.30 to 9.00
